- Tested on: Escherichia coli
- assay-text: Toxicity in Escherichia coli K-12 MG1655 at 100 uM measured after overnight incubation by disc diffusion method
- Assay type: organism-based, K-12 substr. MG1655
- test-conditions: in vivo
metric-name: Activity

- chemical-string: "O=C1C(=O)N(CCCCCCCCBr)c2ccccc21"
  result: "Non-Toxic"
- chemical-string: "O=C1C(=O)N(CCCCN2C(=O)C(=O)c3cc(Cl)ccc32)c2ccccc21"
  result: "Non-Toxic"
- chemical-string: "O=C1C(=O)N(CCN2C(=O)C(=O)c3cc(Br)ccc32)c2ccccc21"
  result: "Non-Toxic"
- chemical-string: "O=C1C(=O)N(CCCCCCN2C(=O)C(=O)c3cc(F)ccc32)c2ccccc21"
  result: "Non-Toxic"
- chemical-string: "O=C1C(=O)N(CCCCN2C(=O)C(=O)c3cc(Br)ccc32)c2ccccc21"
  result: "Non-Toxic"

* * *

- Tested on: Giardia intestinalis
- assay-text: Antiparasitic activity against Giardia lamblia WB trophozoites assessed as parasite growth inhibition at 50 uM after 48 hrs by ATP bioluminescence-based CellTiter-Glo luminescent cell viability assay relative to control
- Type: functional
- test-conditions: Giardia duodenalis, read-out: GI
# inhibition of growth at 50 µM >= 50% gives True, anything below gives False

- chemical-string: "O=C1C(=O)N(CCCCCN2C(=O)C(=O)c3cc(Cl)ccc32)c2ccccc21"
  assigned-category: "True"
- chemical-string: "O=C1C(=O)N(CCCCCCN2C(=O)C(=O)c3cc(Cl)ccc32)c2ccccc21"
  assigned-category: "True"
- chemical-string: "O=C1C(=O)N(CCCCCCN2C(=O)C(=O)c3ccccc32)c2ccccc21"
  assigned-category: "False"
- chemical-string: "O=C1C(=O)N(CCCCN2C(=O)C(=O)c3cc(F)ccc32)c2ccccc21"
  assigned-category: "False"

* * *

- Tested on: Escherichia coli
- assay-text: Toxicity in Escherichia coli K-12 MG1655 at 100 uM measured after overnight incubation by disc diffusion method
- Type: organism-based, K-12 substr. MG1655
- test-conditions: in vivo

- chemical-string: "O=C1C(=O)N(CCCCCCN2C(=O)C(=O)c3cc(Cl)ccc32)c2ccccc21"
  Activity: "Non-Toxic"
- chemical-string: "O=C1C(=O)N(CCN2C(=O)C(=O)c3ccccc32)c2ccccc21"
  Activity: "Non-Toxic"
- chemical-string: "O=C1C(=O)N(CCCN2C(=O)C(=O)c3cc(Cl)ccc32)c2ccccc21"
  Activity: "Non-Toxic"
- chemical-string: "O=C1C(=O)N(CCBr)c2ccccc21"
  Activity: "Non-Toxic"
- chemical-string: "O=C1C(=O)N(CCCN2C(=O)C(=O)c3cc(Br)ccc32)c2ccccc21"
  Activity: "Non-Toxic"

* * *

Quick reference: inhibition of growth at 50 µM of the listed items.
- System: Giardia intestinalis
- assay-text: Antiparasitic activity against Giardia lamblia WB trophozoites assessed as parasite growth inhibition at 50 uM after 48 hrs by ATP bioluminescence-based CellTiter-Glo luminescent cell viability assay relative to control
- Assay type: functional
- test-conditions: Giardia duodenalis, read-out: GI

- chemical-string: "O=C1C(=O)N(CCCCCCN2C(=O)C(=O)c3cc(F)ccc32)c2ccccc21"
  reading-unit: "%"
  inhibition of growth at 50 µM: 30.9
- chemical-string: "O=C1C(=O)N(CCCCCCCCN2C(=O)C(=O)c3cc(Cl)ccc32)c2ccccc21"
  reading-unit: "%"
  inhibition of growth at 50 µM: 8.56
- chemical-string: "O=C1C(=O)N(CCCCCBr)c2ccccc21"
  reading-unit: "%"
  inhibition of growth at 50 µM: 25.8
- chemical-string: "O=C1C(=O)N(CCCCCCCCN2C(=O)C(=O)c3ccccc32)c2ccccc21"
  reading-unit: "%"
  inhibition of growth at 50 µM: 80.7
- chemical-string: "O=C1C(=O)N(CCCN2C(=O)C(=O)c3ccccc32)c2ccccc21"
  reading-unit: "%"
  inhibition of growth at 50 µM: 7.84
- chemical-string: "O=C1C(=O)N(CCCCBr)c2ccccc21"
  reading-unit: "%"
  inhibition of growth at 50 µM: 20.9
- chemical-string: "O=C1C(=O)N(CCCBr)c2ccccc21"
  reading-unit: "%"
  inhibition of growth at 50 µM: 22.9
- chemical-string: "O=C1C(=O)N(CCCCCN2C(=O)C(=O)c3ccccc32)c2ccccc21"
  reading-unit: "%"
  inhibition of growth at 50 µM: 94.3
- chemical-string: "O=C1C(=O)N(CCBr)c2ccccc21"
  reading-unit: "%"
  inhibition of growth at 50 µM: 47.2
- chemical-string: "O=C1C(=O)N(CCCN2C(=O)C(=O)c3cc(Br)ccc32)c2ccccc21"
  reading-unit: "%"
  inhibition of growth at 50 µM: 19.3
- chemical-string: "O=C1C(=O)N(CCCCCCCCBr)c2ccccc21"
  reading-unit: "%"
  inhibition of growth at 50 µM: 100
- chemical-string: "O=C1C(=O)N(CCCN2C(=O)C(=O)c3cc(F)ccc32)c2ccccc21"
  reading-unit: "%"
  inhibition of growth at 50 µM: 100
